System: P388
Assay: Fold resistance calculated as the inhibition concentration ratio between retrovirally transformed murine P388/VMDRC.04 and parental P388 cells
Assay type: functional
I'd be grateful if you could share measured FR for these entries.
Give bare numbers.

Solved cases below.
# GIVEN SMILES, EXPERIMENTAL RESULT
records = [
    ("C=C1C[C@@H]2CC[C@@]34C[C@@H]5O[C@@H]6C(O[C@H]7CC[C@H](CC(=O)C[C@@H]8[C@@H](OC)[C@@H](C[C@H](O)COS(=O)(=O)c9ccc(C)cc9)O[C@H]8C[C@H]8O[C@@H](CC[C@@H]1O2)C[C@@H](C)C8=C)O[C@@H]7[C@@H]6O3)[C@H]5O4", 2.4),
    ("C=C1C[C@@H]2CC[C@@]34C[C@@H]5O[C@@H]6C(O[C@H]7CC[C@H](CC(=O)C[C@@H]8[C@@H](OC)[C@@H](C[C@H](O)COS(C)(=O)=O)O[C@H]8C[C@H]8O[C@@H](CC[C@@H]1O2)C[C@@H](C)C8=C)O[C@@H]7[C@@H]6O3)[C@H]5O4", 3),
    ("C=C1C[C@@H]2CC[C@@]34C[C@@H]5O[C@@H]6C(O[C@H]7CC[C@H](CC(=O)C[C@@H]8[C@@H](OC)[C@@H](C[C@H](O)CNC(=O)c9ccc(Cl)cc9)O[C@H]8C[C@H]8O[C@@H](CC[C@@H]1O2)C[C@@H](C)C8=C)O[C@@H]7[C@@H]6O3)[C@H]5O4", 5.9),
    ("C=C1C[C@@H]2CC[C@@]34C[C@@H]5O[C@@H]6C(O[C@H]7CC[C@H](CC(=O)C[C@@H]8[C@@H](OC)[C@@H](C[C@H](O)COC(=O)Nc9ccccc9)O[C@H]8C[C@H]8O[C@@H](CC[C@@H]1O2)C[C@@H](C)C8=C)O[C@@H]7[C@@H]6O3)[C@H]5O4", 5.7),
    ("C=C1C[C@@H]2CC[C@@]34C[C@@H]5O[C@@H]6C(O[C@H]7CC[C@H](CC(=O)C[C@@H]8[C@@H](OC)[C@@H](C[C@H](O)CN=[N+]=[N-])O[C@H]8C[C@H]8O[C@@H](CC[C@@H]1O2)C[C@@H](C)C8=C)O[C@@H]7[C@@H]6O3)[C@H]5O4", 1.9),
]

Moving on to the next compound.
Problem: Form field: reported FR of "C=C1C[C@@H]2CC[C@@]34C[C@@H]5O[C@@H]6C(O[C@H]7CC[C@H](CC(=O)C[C@@H]8[C@@H](OC)[C@@H](CC(=O)CO)O[C@H]8C[C@H]8O[C@@H](CC[C@@H]1O2)C[C@@H](C)C8=C)O[C@@H]7[C@@H]6O3)[C@H]5O4"
Solution: 3.7

Hey, just so you know, these numbers are from ChEMBL document CHEMBL1138023.
